- Target System: T1, biotinylated recombinant mouse IL-12Rβ2 (mouse, UniProt P97378 24-637, random biotinylated)
- T1 construct: Recombinant protein produced in-house, biotinylated; also called mIL-12RB2; mouse IL-12RB2
- T1 sequence: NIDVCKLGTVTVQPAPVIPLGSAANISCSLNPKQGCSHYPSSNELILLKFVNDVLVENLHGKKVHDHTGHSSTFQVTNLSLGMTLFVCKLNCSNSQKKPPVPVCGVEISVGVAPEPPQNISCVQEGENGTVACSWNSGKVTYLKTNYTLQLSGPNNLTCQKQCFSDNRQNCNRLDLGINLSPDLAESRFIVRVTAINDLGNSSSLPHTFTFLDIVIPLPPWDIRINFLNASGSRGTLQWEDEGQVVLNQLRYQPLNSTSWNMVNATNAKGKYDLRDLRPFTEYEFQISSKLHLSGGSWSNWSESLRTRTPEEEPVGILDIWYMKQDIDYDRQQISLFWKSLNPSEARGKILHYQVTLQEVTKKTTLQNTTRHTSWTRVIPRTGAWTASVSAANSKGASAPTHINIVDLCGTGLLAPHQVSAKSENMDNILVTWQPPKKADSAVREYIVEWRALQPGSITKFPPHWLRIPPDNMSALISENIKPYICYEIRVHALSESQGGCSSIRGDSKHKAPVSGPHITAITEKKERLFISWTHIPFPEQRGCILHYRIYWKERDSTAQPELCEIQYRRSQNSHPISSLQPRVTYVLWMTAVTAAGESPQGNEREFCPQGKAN
- Assay Name: ELISA, periplasmic extract on biotinylated mIL-12Rβ2, signal over control wells
Readout: ELISA binding mIL-12RB2/control (ratio)
Return type: number; implicit unit ratio.

// worked examples, ELISA binding mIL-12RB2/control included
stdin: Which ELISA binding mIL-12RB2/control is listed for anti-IL-12Rβ2 VHH clone 20519 (VHH, not shown: small tags and cut ends, tested as periplasmic extract; also called 2CRMS16) VHH: QVQLQESGGGLVQAGESLRLSCTASGSIFAIDDMYWYRQAPGKQREFVAYITATNSANYLDSVNGRFTISRDNAKNSVYLQMNSLKPEDTAVYYCNAKQIVGFQIDEYWGQGTQVTVSS ?
stdout: 5.44

stdin: Look up ELISA binding mIL-12RB2/control for this binder: anti-IL-12Rβ2 VHH clone 20458 (VHH, not shown: small tags and cut ends, tested as periplasmic extract; also called 3CRM45) VHH: QVQLQESGGGLVQAGGSLRLSCTASGSIFAIDDMYWYRQAPGKEREFVAYITATNSANYLDSVNGRFTISRDNAKNSVYLQMNSLKPEDTAVYYCNAKQIVGFQIDEYWGQGTQVTVSS
stdout: 28.4

stdin: Request the reported ELISA binding mIL-12RB2/control associated with anti-IL-12Rβ2 VHH clone 21063 (VHH, not shown: small tags and cut ends, tested as periplasmic extract; also called 3CRHM133) VHH: QVQLQESGGGSVQAGGSLRLSCAVSGRPVSDYAMGWFRQAPGKEREFVAALSASDTTVYPNSVKGRITISRDNAKNAVDLQMNALKPEDTAVYYCAMGPIGTFQGLARQNEYHYWGQGTQVTVSS
stdout: 3.92

Then this binder:
stdin: Look up ELISA binding mIL-12RB2/control: anti-IL-12Rβ2 VHH clone 20372 (VHH, not shown: small tags and cut ends, tested as periplasmic extract; also called 2CRH82) VHH: QVQLQESGGGLVQAGGSLRLSCAASARTESMYAMAWFRQAPGKEREIVAGIIQSGGTTYISDYMKGRFSIDRGNAENTVYLQMDSLKPEDTAVYSCAAKVSSGTPSDIQISQSRWYDHWGQGTQVTVSS
stdout: 1.77
